Molecular target: T1, Anti-CD28 scFv (VH-linker 1-VL) (biotinylated (site not stated))
T1 construct: biotinylated and captured on neutravidin coated plates in the phage ELISA
T1 sequence (scFv, as listed by the source): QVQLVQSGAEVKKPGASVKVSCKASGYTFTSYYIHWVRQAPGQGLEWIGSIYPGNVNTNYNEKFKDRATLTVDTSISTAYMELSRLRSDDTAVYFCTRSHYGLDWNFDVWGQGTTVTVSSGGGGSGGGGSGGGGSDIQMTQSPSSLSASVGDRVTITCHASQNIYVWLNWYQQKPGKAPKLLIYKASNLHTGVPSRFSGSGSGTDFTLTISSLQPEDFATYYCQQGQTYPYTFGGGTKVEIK
Test: phage ELISA, captured biotinylated scFv; background signal 0.072
Phage binding ELISA CD28 scFv signal values for the binders below.

- binder: "MDWCPVHLWSVCFA [Phage-38]"
  Phage binding ELISA CD28 scFv signal: 2.65
- binder: "MDWCPRSHWHVCYN [Phage-75]"
  Phage binding ELISA CD28 scFv signal: 1.95
- binder: "MDWCPRYLWHVCFA [Phage-36]"
  Phage binding ELISA CD28 scFv signal: 2.48
- binder: "MDWCPRDLWYACFA [Phage-116]"
  Phage binding ELISA CD28 scFv signal: 2.47
